experiment: PK properties in rats; type: in vivo; details: rat, in vivo, 5 mg/kg, suspension (CMC/Tween)
parameter_measured: AUC (ng·h/mL)
State the answer as a number, implicitly in ng·h/mL.

# return recorded AUC for input O=C(O)[C@H](CC1CC1)NC(=O)C1(c2ccc(C(F)(F)F)cc2)CCN(c2cc(Cl)cc3cccnc23)CC1
2920

====

target: PICK1 (Homo sapiens, UniProt Q9NRD5); assay: PICK1 competition (displacement) assay with tracer BIO424; conditions: IC50, BIO424 as tracer;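 further: in vitro displacement assay with baculovirus-expressed, truncated dimeric PICK1 missing its final 59 residues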
Sequence (Q9NRD5 1-356): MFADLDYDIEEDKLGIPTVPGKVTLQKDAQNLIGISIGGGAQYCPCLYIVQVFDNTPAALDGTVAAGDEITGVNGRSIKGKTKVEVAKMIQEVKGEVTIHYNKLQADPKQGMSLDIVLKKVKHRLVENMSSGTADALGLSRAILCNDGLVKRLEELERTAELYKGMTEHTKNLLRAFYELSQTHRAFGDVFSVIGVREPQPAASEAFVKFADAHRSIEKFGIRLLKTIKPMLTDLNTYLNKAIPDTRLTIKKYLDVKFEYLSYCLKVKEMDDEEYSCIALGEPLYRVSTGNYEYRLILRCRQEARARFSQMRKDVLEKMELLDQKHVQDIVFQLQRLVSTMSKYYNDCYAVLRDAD
pIC50: −log10 of the molar value.
Please mark yes (1) if the recorded pIC50 is equal to or greater than 6, and no (0) if it falls below.

Identify whether the reported pIC50 of the following compound is 6 or greater: CC(C)(C)OC(=O)N1CCC[C@H]1C(=O)N1CCC(C(=O)NC(C)(C)C(=O)O)(c2ccc(Br)cc2)CC1
no (0)

Could you verify whether the entry O=C(O)[C@H](CC1CC1)NC(=O)C1(c2ccc(C(F)(F)F)cc2)CCN(c2cc(OC(F)(F)F)cc3cccnc23)CC1 shows pIC50 of no less than 6?
no (0)

In plain terms: is recorded pIC50 at least 6 for O=C(O)[C@H](CC1CC1)NC(=O)C1(c2ccc(C(F)(F)F)cc2)CCN(c2cccc3ccccc23)CC1 ?
no (0)

Test whether the compound O=C(O)[C@H](CC1CC1)NC(=O)C1(c2ccc(Br)cc2)CCN(Cc2ccccc2C(F)(F)F)CC1 records pIC50 of 6 or higher.
yes (1)

Answer whether pIC50 of O=C(O)[C@H](CC1CC1)NC(=O)C1(c2ccc(Br)cc2)CCN(Cc2cccc(C(F)(F)F)c2)CC1 is greater than or equal to 6.
no (0)

Kindly determine if pIC50 recorded for CC(C)[C@H](NC(=O)C1(Cc2ccccc2)CCN(C(=O)[C@@H]2CCCN2C(=O)OC(C)(C)C)CC1)C(=O)O is above or exactly 6.
no (0)

Say whether CCc1cc(N2CCC(C(=O)N[C@@H](CC3CC3)C(=O)O)(c3ccc(C(F)(F)F)cc3)CC2)c2ncccc2c1 shows pIC50 of 6 or more.
yes (1)

Check if pIC50 >= 6 (inclusive). Item: Cc1cc(N2CCC(C(=O)N[C@@H](CC3CC3)C(=O)O)(c3ccc(C(F)(F)F)cc3)CC2)c2ncccc2c1
yes (1)

Threshold query (pIC50 >= 6) on CC(C)c1cc(N2CCC(C(=O)N[C@@H](CC3CC3)C(=O)O)(c3ccc(C(F)(F)F)cc3)CC2)c2ncccc2c1
yes (1)

Tell me whether pIC50 is at least 6 here: CC(C)[C@H](NC(=O)C1(c2ccc(Br)cc2)CCN(C(=O)[C@@H]2CCCN2C(=O)OC(C)(C)C)CC1)C(=O)O
no (0)

In plain terms: is recorded pIC50 at least 6 for O=C(O)[C@H](CC1CC1)NC(=O)C1(c2ccc(Br)cc2)CCN(Cc2ccc(C(F)(F)F)cc2)CC1 ?
no (0)

Could you tell me if the measured pIC50 of CC(C)(C)OC(=O)N1CCC[C@H]1C(=O)N1CCC(C(=O)N[C@@H](Cc2c[nH]c3ccccc23)C(=O)O)(c2ccc(Br)cc2)CC1 reaches 6 or more?
no (0)

Does CC(C)(C)OC(=O)N1CCC[C@H]1C(=O)N1CCC(C(=O)NCC(=O)O)(c2ccc(Br)cc2)CC1 have a reported pIC50 of at least 6?
no (0)

====

target: PICK1 (Homo sapiens); experiment: PICK1 competition (displacement) assay with tracer BIO424; settings: IC50, BIO424 as tracer
Assign pIC50 to each entry below.
# log scale: pIC50 equals minus log10 of the concentration in mol/L

Item CC(C)(C)OC(=O)N1CCC[C@H]1C(=O)N1CCC(C(=O)N[C@H](C(=O)O)C2CCCC2)(c2ccc(Br)cc2)CC1 [1l] : provide pIC50
6.09

Entry COc1cc(N2CCC(C(=O)N[C@@H](CC3CC3)C(=O)O)(c3ccc(C(F)(F)F)cc3)CC2)c2ncccc2c1 [1ac] needs its pIC50 filled in; supply it.
6.25

====

Assign IC50 to each entry below.
biological target: UniProt:Q9NRD5; assay: PICK1 competition (displacement) assay with tracer BIO424; settings: IC50, BIO424 as tracer
Answer in nM, number only, no unit symbol.

Specify IC50 for CC(C)(C)OC(=O)N1CCC[C@H]1C(=O)N1CCC(C(=O)N[C@@H](CC2CC2)C(=O)O)(c2ccc(Br)cc2)CC1 , system UniProt:Q9NRD5.
718

Return reported IC50 for target or system UniProt:Q9NRD5, item O=C(O)[C@H](CC1CC1)NC(=O)C1(c2ccc(C(F)(F)F)cc2)CCN(c2ccccc2)CC1 .
2040

Please look at O=C(O)[C@H](CC1CC1)NC(=O)C1(c2ccc(C(F)(F)F)cc2)CCN(c2cc(Br)cc3cccnc23)CC1 and tell me its recorded IC50 on UniProt:Q9NRD5.
75

Specify IC50 for O=C(O)[C@H](CC1CC1)NC(=O)C1(c2ccc(C(F)(F)F)cc2)CCN(c2cc(F)cc3cccnc23)CC1 , system UniProt:Q9NRD5.
626

Give reported IC50 for O=C(O)[C@H](CC1CC1)NC(=O)C1(c2ccc(C(F)(F)F)cc2)CCN(c2cccc3cccnc23)CC1 (UniProt:Q9NRD5)
4600

Output reported IC50 of the compound O=C(O)[C@H](CC1CC1)NC(=O)C1(c2ccc(C(F)(F)F)cc2)CCN(c2cc(C(F)(F)F)cc3cccnc23)CC1 on UniProt:Q9NRD5.
104

Report the value of IC50 obtained on UniProt:Q9NRD5 for CC(C)[C@H](NC(=O)C1(C2CCCCC2)CCN(C(=O)[C@@H]2CCCN2C(=O)OC(C)(C)C)CC1)C(=O)O .
17400
